experiment: HepG2 cytotoxicity, primary screen, cytotoxicity control for P. falciparum antimalarial project, cell-based, ATP luminescence (AID 2303); conditions: HepG2 viability, 24-48 h, at 10 µM
Activity calls are given as the source filed them.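 The calls were made as follows: active = inhibition above 50%; inactive = the rest.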
Allowed answers: active, inactive

Consider the worked cases shown below.
>  <Chemical smiles>
CC(C)c1ccc(NS(=O)(=O)c2cccc(C(=O)NC3CCN(CC4CCCCC4)CC3)c2)cc1

>  <Qualitative label>
active

$$$$
>  <Chemical smiles>
Cc1cc2[nH]c(-c3ccc(C(=O)NCCCN4CCN(c5cccc(Cl)c5)CC4)cc3)nc2cc1Cl

>  <Qualitative label>
inactive

$$$$
>  <Chemical smiles>
N#Cc1cccc(NC(=O)NC2CCN(CCCCCNC(=O)/C=C/c3ccc(Cl)c(Cl)c3)CC2)c1

>  <Qualitative label>
inactive

$$$$
>  <Chemical smiles>
COc1ccc(C=NNc2c3ccccc3nc3ccccc23)c2ccccc12

>  <Qualitative label>
inactive

$$$$

For the next question, use this compound.
Any idea what this test logged for Cc1ccc(-c2[nH]n3c(=O)c4c(nc3c2C)CCCC4)cc1 ?
inactive
